biological target: Serine protease 1 (Homo sapiens, UniProt P07477); assay: Ratio of inhibitory constant evaluated against trypsin to that of thrombin (Factor IIa)
Sequence (P07477 whole entry): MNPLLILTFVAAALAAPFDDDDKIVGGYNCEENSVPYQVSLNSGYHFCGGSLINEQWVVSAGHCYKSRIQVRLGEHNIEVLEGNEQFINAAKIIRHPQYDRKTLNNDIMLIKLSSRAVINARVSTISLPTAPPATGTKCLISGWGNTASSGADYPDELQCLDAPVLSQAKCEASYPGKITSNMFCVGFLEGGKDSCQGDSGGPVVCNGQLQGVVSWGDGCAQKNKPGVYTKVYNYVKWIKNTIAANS
Binary call on Selectivity ratio with cut-off 2000: strictly below means y, and equality or higher means n.

Below, 6 compounds whose answers are already recorded.
Does this compound meet the criterion Selectivity ratio < 2000? `NCc1ccc(Cl)cc1CNC(=O)[C@@H]1CCCN1C(=O)[C@H](N)Cc1ccccc1`
y

Does this compound meet the criterion Selectivity ratio < 2000? `Cc1nc(N)ccc1CNC(=O)Cn1c(C)cnc(NCCc2ccccc2)c1=O`
y

Does this compound meet the criterion Selectivity ratio < 2000? `Cc1ccc(NS(=O)(=O)Cc2ccccc2)c(=O)n1CC(=O)NCc1cccc(CN)c1`
y

Does this compound meet the criterion Selectivity ratio < 2000? `Cc1ccc(NS(=O)(=O)Cc2ccccc2)c(=O)n1CC(=O)NCc1cccc(Cl)c1`
n

Does this compound meet the criterion Selectivity ratio < 2000? `N[C@H](Cc1ccccc1)C(=O)N1CCC[C@H]1C(=O)NCc1cccc(Cl)c1`
y

Does this compound meet the criterion Selectivity ratio < 2000? `Cc1ccc(NS(=O)(=O)Cc2ccccc2)c(=O)n1CC(=O)NCc1ccc(CN)cc1`
y

New cases:
Does this compound meet the criterion Selectivity ratio < 2000? `NCCc1ccc(Cl)cc1CNC(=O)[C@@H]1CCCN1C(=O)[C@H](N)Cc1ccccc1`
n

Does this compound meet the criterion Selectivity ratio < 2000? `Cc1ccc(NS(=O)(=O)Cc2ccccc2)c(=O)n1CC(=O)NCc1ccccc1N`
n

Does this compound meet the criterion Selectivity ratio < 2000? `Cc1ccc(NS(=O)(=O)Cc2ccccc2)c(=O)n1CC(=O)NCc1cc(Cl)ccc1CCN`
n
